Origin of measurements: paper PMC12281475

Molecular target: CDK2_CycE1 (Homo sapiens, UniProt P24941)
Construct: purchased Reaction Biology
Assay: Radiometric protein kinase assay (33PanQinase), CDK2_CycE1
Type: biochemical
Conditions: slope of the IC50 fit
Parameter Measured: Hill Slope

Use these answered entries as a reference point.
Compound	System	Assay Value
CN1CCN(C(=O)c2ccc3cc(CCNc4ncnc5ccc(C#N)cc45)ccc3c2)CC1 [Senexin B, reference compound]	CDK2_CycE1 (Homo sapiens, UniProt P24941)	-0.46
Cn1cc(-c2ccc(-c3cncc(Cl)c3N3CCC4(CCNC4=O)CC3)cc2)cn1	CDK2_CycE1 (Homo sapiens, UniProt P24941)	-0.5
Cc1n[nH]c2ncc(C(=O)N3CCC[C@H]3c3ccc(Cl)cc3)cc12	CDK2_CycE1 (Homo sapiens, UniProt P24941)	-1.29
Cc1c(Br)c(Br)c2c3c1nc(N1CCNCC1)n3CCC2.Cl [SEL120-34A, reference compound]	CDK2_CycE1 (Homo sapiens, UniProt P24941)	-1.13

Let us move to another entry and its Hill Slope.
Field: Hill Slope (CDK2_CycE1 (Homo sapiens, UniProt P24941)). Entry: Cn1ncc2cc(-c3cnc(N)c(Cl)c3N3CCC4(CCNC4=O)CC3)ccc21 -0.94
